The entries below come with measured T/C % (median survival time of treated mice/median survival time of control × 100) values attached.
System: murine Gross leukemia
run_description: Effect against murine Gross leukemia
Type: in vivo, murine (C3H/He mice)
test_context: Gross leukemia, C3H/He mice, 2 × 10^6 cells i.v.; single i.v. dose day 1 at optimal dose (mg/Kg): DNR 15, DXR 13-16.9, Ib 65, Ia 12.5, IIa 4, Id 6.7, IIc 1
Experimental: The antileukemic activity of Ia and IIa, in comparison with DXR (doxorubicin) and DNR (daunorubicin), was tested against murine P388 and Gross Leukemias. The compounds were tested by dissolving them, as hydrochlorides, in water. ^a Experiments were performed in C3H/He mice, inoculated i.v. with 2 ^b Single i.v. dose on day 1 after tumor inoculum. ^c Median survival time of treated mice/median survival time of ^3 Evaluated on the basis of autoptic findings.
measured_attribute: T/C % (median survival time of treated mice/median survival time of control × 100) (%)

>  <compound>
C[C@@H]1O[C@@H](O[C@H]2C[C@](O)(C(=O)CO)Cc3c(O)c4c(c(O)c32)C(=O)c2ccccc2C4=O)CC[C@H]1N

>  <measured_on>
murine Gross leukemia

>  <result_number>
217

$$$$
>  <compound>
COc1cccc2c1C(=O)c1c(O)c3c(c(O)c1C2=O)C[C@@](O)(C(=O)CO)C[C@@H]3O[C@H]1CC[C@H](N)[C@H](C)O1

>  <measured_on>
murine Gross leukemia

>  <result_number>
200

$$$$
>  <compound>
COc1cccc2c1C(=O)c1c(O)c3c(c(O)c1C2=O)C[C@@](O)(C(C)=O)C[C@@H]3O[C@H]1CC[C@H](N)[C@H](C)O1

>  <measured_on>
murine Gross leukemia

>  <result_number>
240

$$$$
>  <compound>
CC(=O)[C@]1(O)Cc2c(O)c3c(c(O)c2[C@@H](O[C@H]2CC[C@H](N)[C@H](C)O2)C1)C(=O)c1ccccc1C3=O

>  <measured_on>
murine Gross leukemia

>  <result_number>
240

$$$$
>  <compound>
CC(=O)[C@]1(O)Cc2c(O)c3c(c(O)c2[C@@H](O[C@H]2CC[C@@H](N)[C@H](C)O2)C1)C(=O)c1ccccc1C3=O

>  <measured_on>
murine Gross leukemia

>  <result_number>
160

$$$$
>  <compound>
COc1cccc2c1C(=O)c1c(O)c3c(c(O)c1C2=O)C[C@@](O)(C(C)=O)C[C@@H]3O[C@H]1C[C@H](N)[C@H](O)[C@H](C)O1 [DNR, daunorubicin, reference compound]

>  <measured_on>
murine Gross leukemia

>  <result_number>
200

$$$$
